- ASSAY COMMENT: equilibrium solubility determined during polymorph screen
- Assay type: physicochemical
- MEASUREMENT SETUP: thermodynamic from solid; pH 7 water, four days at ambient temperature
OBSERVED PROPERTY: solubility thermodynamic at 4 days

Data request: Report solubility thermodynamic at 4 days for "O=C(O)c1ccc(C(F)(F)F)cc1-c1ccc2c(c1)OC[C@H](Cc1ccccc1)[C@H]2O" please.
Data returned: ~4000 µg/mL
